biological target: α4β1 integrin (Jurkat T-cell adhesion to IL-1 stimulated endothelial cell monolayers) (Homo sapiens, UniProt P05556+P13612); construct: a T-cell line, Jurkat, known to express the α4β1 integrin; assay: Jurkat-Endothelial Cell Adhesion Assay (Jurkat EC); settings: Jurkat cells on IL-1 stimulated HUVEC monolayers
measure.name: IC50

# compound CC1(C)[C@@H](C(=O)N[C@@H](Cc2ccc(C(=O)Nc3c(Cl)cc(Cl)cc3Cl)cc2)C(=O)O)CC[C@@]1(C)C(=O)O [Example 223] ; its IC50 = ≤ 800 nM

IC50 measured on CC1(C)[C@@H](C(=O)N[C@@H](Cc2ccc(C(=O)Nc3c(Cl)cccc3Cl)cc2)C(=O)O)CC[C@@]1(C)C(=O)O [Example 153] = 800 to 5000 nM

Reported IC50 for CC(=O)Nc1ccc(C[C@H](NC(=O)[C@H]2CC[C@@](C)(C(=O)O)C2(C)C)C(=O)O)cc1 [Example 79] was 5000 to 10000 nM

Per the record, CC1(C)[C@@H](C(=O)N[C@@H](Cc2ccc(OCc3c(Cl)cccc3Cl)c(Cl)n2)C(=O)O)CC[C@@]1(C)C(=O)O (relative stereo) [Example 194] has IC50 of 800 to 5000 nM

For record CC1(C)[C@@H](C(=O)N[C@@H](Cc2ccc(C(=O)Nc3ccc(-c4ccccc4)cc3)cc2)C(=O)O)CC[C@@]1(C)C(=O)O [Example 220] the listed IC50 is 800 to 5000 nM

Consider CC1(C)[C@@H](C(=O)N[C@@H](Cc2ccc(NC(=O)c3c(Cl)cccc3Cl)cc2)C(=O)O)CC[C@@]1(C)C(=O)NCCC(=O)O [Example 214] . Its measured IC50 is ≤ 800 nM

###

target: α4β1 integrin (Jurkat cell adhesion to immobilized CS-1 derived peptide CLHPGEILDVPST) (Homo sapiens, UniProt P05556+P13612); construct: 100 μl of Jurkat cells (2.5×10^6 cells/ml) in DMEM plus BSA; endogenous in cells; experiment: Jurkat-CS-1 Assay; conditions: Jurkat cells on CS-1 peptide coated plates
Sequence (P13612 34-1032): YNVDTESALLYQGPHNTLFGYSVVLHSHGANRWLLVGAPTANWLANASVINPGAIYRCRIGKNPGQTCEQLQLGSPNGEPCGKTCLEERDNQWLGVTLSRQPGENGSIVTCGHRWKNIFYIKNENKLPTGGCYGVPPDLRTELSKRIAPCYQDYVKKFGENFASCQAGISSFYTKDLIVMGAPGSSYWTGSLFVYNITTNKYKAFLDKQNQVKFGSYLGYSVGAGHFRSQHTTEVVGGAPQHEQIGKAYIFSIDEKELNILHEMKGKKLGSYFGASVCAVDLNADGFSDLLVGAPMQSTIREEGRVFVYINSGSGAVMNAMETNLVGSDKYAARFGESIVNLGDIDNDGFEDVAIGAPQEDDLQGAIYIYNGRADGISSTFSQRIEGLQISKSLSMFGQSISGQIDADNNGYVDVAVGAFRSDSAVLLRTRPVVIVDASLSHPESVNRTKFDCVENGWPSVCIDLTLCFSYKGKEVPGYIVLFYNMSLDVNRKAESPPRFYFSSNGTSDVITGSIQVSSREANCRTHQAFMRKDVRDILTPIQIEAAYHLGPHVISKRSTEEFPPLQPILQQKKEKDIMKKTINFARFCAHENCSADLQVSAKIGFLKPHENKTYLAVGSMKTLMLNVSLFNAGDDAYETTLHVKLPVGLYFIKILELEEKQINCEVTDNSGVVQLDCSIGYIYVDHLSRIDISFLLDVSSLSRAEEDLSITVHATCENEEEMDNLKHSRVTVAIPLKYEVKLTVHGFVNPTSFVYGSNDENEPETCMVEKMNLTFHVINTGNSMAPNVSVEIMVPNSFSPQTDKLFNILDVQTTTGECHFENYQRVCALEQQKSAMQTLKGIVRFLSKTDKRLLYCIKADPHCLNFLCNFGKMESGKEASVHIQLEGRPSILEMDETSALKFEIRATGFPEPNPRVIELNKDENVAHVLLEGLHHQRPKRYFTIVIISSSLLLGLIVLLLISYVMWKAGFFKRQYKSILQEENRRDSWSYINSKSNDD
Sequence (P05556 21-798): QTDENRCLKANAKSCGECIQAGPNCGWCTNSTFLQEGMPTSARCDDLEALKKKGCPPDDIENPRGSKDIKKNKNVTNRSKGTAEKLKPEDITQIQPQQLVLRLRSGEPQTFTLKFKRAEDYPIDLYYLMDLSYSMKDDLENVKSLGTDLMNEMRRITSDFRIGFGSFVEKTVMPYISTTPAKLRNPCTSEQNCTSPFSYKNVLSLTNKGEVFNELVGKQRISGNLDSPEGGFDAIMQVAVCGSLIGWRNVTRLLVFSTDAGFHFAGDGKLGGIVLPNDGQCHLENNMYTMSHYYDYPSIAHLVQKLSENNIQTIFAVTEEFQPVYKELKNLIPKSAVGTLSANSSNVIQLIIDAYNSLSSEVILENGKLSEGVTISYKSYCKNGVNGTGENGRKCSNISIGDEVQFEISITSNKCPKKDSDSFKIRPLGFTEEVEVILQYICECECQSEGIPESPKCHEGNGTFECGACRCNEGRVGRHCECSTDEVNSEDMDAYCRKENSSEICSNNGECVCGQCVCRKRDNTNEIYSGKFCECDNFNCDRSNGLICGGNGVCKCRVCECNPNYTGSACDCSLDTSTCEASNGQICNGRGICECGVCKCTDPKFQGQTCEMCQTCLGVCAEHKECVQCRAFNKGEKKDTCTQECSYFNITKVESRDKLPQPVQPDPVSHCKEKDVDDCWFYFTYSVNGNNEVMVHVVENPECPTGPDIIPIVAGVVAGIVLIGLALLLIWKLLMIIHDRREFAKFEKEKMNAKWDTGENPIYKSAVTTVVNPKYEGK
measure.name: IC50

Kindly note the recorded IC50 for "CC1(C)[C@@H](C(=O)N[C@@H](Cc2cn(Cc3ccccc3)cn2)C(=O)O)CC[C@@]1(C)C(=O)O" , which is 500 to 1000 nM

The recorded IC50 for "CC1(C)[C@@H](C(=O)N[C@@H](Cc2ccc(NC(=O)c3c(Cl)cccc3Cl)cc2)C(=O)O)CC[C@@]1(C)C(N)=O" is ≤ 80 nM

Per the record, "CC1(C)[C@@H](C(=O)N[C@@H](Cc2ccc(C(=O)Nc3ccc(-c4ccccc4)cc3)cc2)C(=O)O)CC[C@@]1(C)C(=O)O" has IC50 of 80 to 500 nM

###

target: α4β1 integrin (Jurkat cell adhesion to immobilized CS-1 derived peptide CLHPGEILDVPST) (Homo sapiens, UniProt P05556+P13612); construct: 100 μl of Jurkat cells (2.5×10^6 cells/ml) in DMEM plus BSA; endogenous in cells; assay: Jurkat-CS-1 Assay; settings: Jurkat cells on CS-1 peptide coated plates
pIC50: −log10 of the molar value.
measure.name: pIC50

Lookup result for "CC1(C)[C@@H](C(=O)N[C@@H](Cc2ccc(OCC3CCCCC3)cc2)C(=O)O)CC[C@@]1(C)C(=O)O" ; measured pIC50: 6.00 to 6.30

Measured pIC50 of "CC1(C)[C@@H](C(=O)N[C@@H](Cc2ccc(NC(=O)c3ccccc3N)cc2)C(=O)O)CC[C@@]1(C)C(=O)O" : 6.30 to 7.10

The compound identified as "CC1(C)[C@@H](C(=O)N[C@@H](Cc2ccc(NC(=O)c3c(Cl)cccc3Cl)cc2)C(=O)O)CC[C@@]1(C)C(=O)NCCC#N" registered its pIC50 at ≥ 7.10
